Hey, just so you know, these numbers are from ChEMBL document CHEMBL1909294.

- System: Hepatotoxicity
assayEndpoint: HepSE_Combined Scores
One number for each entry.

Required: HepSE_Combined Scores, one value per molecule below.
1. CCN(CC)CCNC(=O)c1ccc(N)cc1 [PROCAINAMIDE]
2. NCC1(CC(=O)O)CCCCC1 [GABAPENTIN]
3. CCn1cc(C(=O)O)c(=O)c2ccc(C)nc21 [NALIDIXIC ACID]
4. N[C@@H](Cc1cc(I)c(Oc2cc(I)c(O)c(I)c2)c(I)c1)C(=O)O [LEVOTHYROXINE]

Reply:
1. 2
2. 8
3. 0
4. 0

---

Here's what we have: HepSE_jaundice numbers for Hepatotoxicity.
Where a SMILES comes first, the peptide text is derived from it. Bridges are numbered along the chain shown (N, C = ends). [ ]: non-standard residue; d: D form. The star is where a group is joined. Ileψ(thiazoline)Cys = CC[C@H](C)[C@H](N)C1=N[C@H](C(=O)*)CS1; dOrn = NCCC[C@@H](N)C(=O)O
Numbers only.

| compound | HepSE_jaundice |
| --- | --- |
| N[C@@H]1[C@H]2CN(c3nc4c(cc3F)c(=O)c(C(=O)O)cn4-c3ccc(F)cc3F)C[C@@H]12 | 1 |
| CC(N)Cc1ccccc1 (stereo not drawn) | 0 |
| CC(C)OC(=O)CCC/C=C\C[C@@H]1[C@@H](/C=C/[C@@H](O)COc2cccc(C(F)(F)F)c2)[C@H](O)C[C@@H]1O | 0 |

I'm hoping you can list HepSE_jaundice for every compound here, please.
1. CC(=O)Oc1c(C)cc(OCC(O)CNC(C)C)c(C)c1C (stereo not drawn)
2. O=C1c2c(O)ccc(O)c2C(=O)c2c(NCCNCCO)ccc(NCCNCCO)c21
3. CN(C)CCCN1c2ccccc2Sc2ccc(Cl)cc21
4. CC[C@H](C)[C@H](N)C1=N[C@H](C(=O)N[C@@H](CC(C)C)C(=O)N[C@H](CCC(=O)O)C(=O)N[C@H](C(=O)N[C@H]2CCCCNC(=O)[C@H](CC(N)=O)NC(=O)[C@@H](CC(=O)O)NC(=O)[C@H](Cc3cnc[nH]3)NC(=O)[C@@H](Cc3ccccc3)NC(=O)[C@H]([C@@H](C)CC)NC(=O)[C@@H](CCCN)NC2=O)[C@@H](C)CC)CS1 [BACITRACIN] ({Ileψ(thiazoline)Cys}-L[dE]IK[dOrn]I[dF]H[dD]N; lactam 4-C)
5. O=[N+]([O-])O[C@@H]1CO[C@H]2[C@@H]1OC[C@@H]2O [ISOSORBIDE MONONITRATE]

Reply:
[0, 1, 1, 0, 0]

---

- System: Hepatotoxicity
Assignment: determine reported HepSE_liver function tests abnormal for the given compounds.
Numbers only.

| compound | dataValue |
| --- | --- |
| Nc1nc2[nH]cc(CCc3ccc(C(=O)N[C@@H](CCC(=O)O)C(=O)O)cc3)c2c(=O)[nH]1 [PEMETREXED] | 0 |

Can you give me HepSE_liver function tests abnormal for all of these, one by one?
1. CCCN1C[C@H](CSC)C[C@@H]2c3cccc4[nH]cc(c34)C[C@H]21 [PERGOLIDE]
2. CN1CCC(=C2c3ccccc3CCc3sccc32)CC1 [PIZOTYLINE]
3. Cc1c(C)c2c(c(C)c1O)CCC(C)(COc1ccc(CC3SC(=O)NC3=O)cc1)O2 (stereo not given) [TROGLITAZONE]
4. O=C1CCC(N2C(=O)c3ccccc3C2=O)C(=O)N1 (stereo not given) [THALIDOMIDE]
5. CC(C)N(CCC(C(N)=O)(c1ccccc1)c1ccccn1)C(C)C (stereo not given) [DISOPYRAMIDE]
6. Nc1ccc(C(=O)NCC(=O)O)cc1 [AMINOHIPPURIC ACID]

Reply:
1. 1
2. 0
3. 1
4. 0
5. 0
6. 0
